experimental_protocol: DSSTox (CPDBAS) Carcinogenic Potency Database Summary MultiCellCall Results
measurement_parameters: animal carcinogenicity bioassays, multi-cell call summary
Calls of active or inactive are those of the source.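 Rule for the calls: active = tumour findings in long-term animal cancer tests in more than one sex, species or organ; inactive = no tumour finding and more than one negative test.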
Parameter call: string, one of active, inactive

Check out these entries, answers already filled in.
compound: [Cl-].[Cl-].[Cl-].[Fe+3]
assigned_category: inactive

compound: c1ccc2cc(Nc3ccc(Nc4ccc5ccccc5c4)cc3)ccc2c1
assigned_category: inactive

compound: CC(=O)Nc1ccc(N=Nc2cc(C)ccc2O)cc1
assigned_category: active

Please examine the following record next.
Query: Dear colleague, could you share the recorded outcome for C=Cc1cccc[n+]1[O-] when you have a moment?
Reply: inactive

----------
experimental_protocol: DSSTox (CPDBAS) Carcinogenic Potency Database Summary MultiCellCall Results
measurement_parameters: animal carcinogenicity bioassays, multi-cell call summary
Activity calls are given as the source filed them.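 How the source made its calls: active means tumour findings in long-term animal cancer tests in more than one sex, species or organ; inactive means no tumour finding and more than one negative test.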
Parameter call: string, one of TRUE (active), FALSE (inactive)

Check out these entries, answers already filled in.
compound: CN(N=O)c1ccc(/C=C/c2ccnc3ccccc23)cc1
assigned_category: TRUE

compound: CCCCCN(N=O)C(N)=O
assigned_category: TRUE

Query: Dear colleague, could you share the recorded outcome for O=C(O)c1ccccc1 when you have a moment?
Reply: FALSE

Query: Dear colleague, could you share the recorded outcome for O=C(O)CNCC(=O)O when you have a moment?
Reply: FALSE

----------
experimental_protocol: DSSTox (CPDBAS) Carcinogenic Potency Database Summary MultiCellCall Results
measurement_parameters: animal carcinogenicity bioassays, multi-cell call summary
Active and inactive are the calls of the source.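 The calls were made as follows: active = tumour findings in long-term animal cancer tests in more than one sex, species or organ; inactive = no tumour finding and more than one negative test.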
Parameter call: string, one of active, inactive

Check out these entries, answers already filled in.
molecule: OCC(O)CCl (stereo not given)
assigned_category: inactive
//
molecule: NC(=O)CCCCn1ccc(NC(N)=NCC(F)(F)F)n1
assigned_category: active
//
molecule: CC/C(C)=N/O
assigned_category: active
//
molecule: NC(N)=O
assigned_category: inactive

Query: Dear colleague, could you share the recorded outcome for FC(F)(F)C(Cl)Cl when you have a moment?
Reply: active

Query: Dear colleague, could you share the recorded outcome for C[C@@H]1CC2(O[C@@H]2C)C(=O)O[C@@H]2CCN(C)C/C=C(/COC(=O)[C@]1(C)O)C2=O (stereo not given in full) when you have a moment?
Reply: active

Query: Dear colleague, could you share the recorded outcome for COC(C(=O)O)c1ccccc1 (stereo not given) when you have a moment?
Reply: inactive

Query: Dear colleague, could you share the recorded outcome for O.O.O.O.O.O.O=S(=O)([O-])[O-].[Ni+2] when you have a moment?
Reply: inactive

Query: Dear colleague, could you share the recorded outcome for CC(=O)Nc1ccc(OCC(O)CNC(C)C)cc1 (stereo not given) when you have a moment?
Reply: inactive

Query: Dear colleague, could you share the recorded outcome for CCOc1ccc(NC(C)=O)cc1 when you have a moment?
Reply: active

----------
experimental_protocol: DSSTox (CPDBAS) Carcinogenic Potency Database Summary MultiCellCall Results
measurement_parameters: animal carcinogenicity bioassays, multi-cell call summary
Active and inactive are the calls of the source.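 Rule for the calls: active = tumour findings in long-term animal cancer tests in more than one sex, species or organ; inactive = no tumour finding and more than one negative test.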
Parameter call: string, one of active, inactive

chem_smiles: NNC(=O)c1ccccc1
assigned_category: active
//
chem_smiles: Cn1cc(C(=O)[C@@H]2CCc3nc[nH]c3C2)c2ccccc21
assigned_category: inactive
//
chem_smiles: OC[P+](CO)(CO)CO
assigned_category: inactive
//
chem_smiles: O=C(O)Cc1cccc2ccccc12
assigned_category: inactive
//
chem_smiles: Nc1ccc([N+](=O)[O-])cc1N
assigned_category: inactive

Query: Dear colleague, could you share the recorded outcome for CC(=O)OC/C=C(C)/C=C/C=C(C)/C=C/C1=C(C)CCCC1(C)C when you have a moment?
Reply: active

Query: Dear colleague, could you share the recorded outcome for c1ccc2c(c1)Nc1ccccc1S2 when you have a moment?
Reply: inactive

----------
experimental_protocol: DSSTox (CPDBAS) Carcinogenic Potency Database Summary MultiCellCall Results
measurement_parameters: animal carcinogenicity bioassays, multi-cell call summary
From the text: The Carcinogenic Potency Database (CPDB) is a unique and widely used international resource of the results of over 6500 chronic, long-term animal cancer tests on over 1500 chemical substances. The CPDB provides easy access to the bioassay literature, with qualitative and quantitative analyses of both positive and negative experiments that have been published over the past 50 years in the general literature and by the National Cancer Institute/National Toxicology Program. […]
Activity calls are given as the source filed them.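 How the source made its calls: active means tumour findings in long-term animal cancer tests in more than one sex, species or organ; inactive means no tumour finding and more than one negative test.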 *1 amine or outer side, *2 acyl side, *3 side chain or, on linkers, in order; H or OH if unused. Where a SMILES comes first, the peptide text is derived from it. Bridges are numbered along the chain shown (N, C = ends). Roman numbers before positions name the chains, in order. [ ]: non-standard residue; d: D form. Actinocin(9to1) = Cc1c2oc3c(C)ccc(C(=O)[*:1])c3nc-2c(C(=O)[*:2])c(N)c1=O; NMeV = CN[C@H](C(=O)O)C(C)C; Sar = CNCC(=O)O
outcome_measure: outcome

Use the examples below as a reference point.
molecule: CCN(Cc1cccc(S(=O)(=O)[O-])c1)c1ccc(C(=C2C=CC(=[N+](C)C)C=C2)c2ccc(N(CC)Cc3cccc(S(=O)(=O)O)c3)cc2)cc1
outcome_measure: outcome
recorded_result: active; multisite active
//
molecule: Oc1ccc2ccccc2c1N=Nc1ccccc1
outcome_measure: outcome
recorded_result: active; multisex active
//
molecule: COc1cc(S(C)=O)ccc1-c1nc2ccncc2[nH]1 (centres undefined)
outcome_measure: outcome
recorded_result: active; multisex active
//
molecule: CCC1(c2ccccc2)C(=O)NC(=O)NC1=O
outcome_measure: outcome
recorded_result: active; multisex active

Query: Tell me the measured outcome of CN(N=O)c1ccccc1 , please.
Reply: active; multisex active

Query: Tell me the measured outcome of Cc1c2oc3c(C)ccc(C(=O)N[C@@H]4C(=O)N[C@H](C(C)C)C(=O)N5CCC[C@H]5C(=O)N(C)CC(=O)N(C)[C@@H](C(C)C)C(=O)O[C@@H]4C)c3nc-2c(C(=O)N[C@@H]2C(=O)N[C@H](C(C)C)C(=O)N3CCC[C@H]3C(=O)N(C)CC(=O)N(C)[C@@H](C(C)C)C(=O)O[C@@H]2C)c(N)c1=O (I: T[dV]P[Sar][NMeV] / II: T[dV]P[Sar][NMeV]; ester I:1-I:C, II:1-II:C; linker I:N-II:N via Actinocin(9to1)) , please.
Reply: active; multisex active

Query: Tell me the measured outcome of C=CCN(CCO)N=O , please.
Reply: active; multisite active

Query: Tell me the measured outcome of C=CCN(CC(C)O)N=O (centres undefined) , please.
Reply: active; multisite active

Query: Tell me the measured outcome of NCCCCCCCCCCC(=O)O , please.
Reply: active; multisite active

----------
experimental_protocol: DSSTox (CPDBAS) Carcinogenic Potency Database Summary MultiCellCall Results
measurement_parameters: animal carcinogenicity bioassays, multi-cell call summary
Calls of active or inactive are those of the source.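 How the source made its calls: active means tumour findings in long-term animal cancer tests in more than one sex, species or organ; inactive means no tumour finding and more than one negative test.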
Parameter call: string, one of active, inactive

Check out these entries, answers already filled in.
compound: O.O.O.O.O.O.O.O.O=S(=O)([O-])[O-].O=S(=O)([O-])[O-].O=S(=O)([O-])[O-].[Cd+2].[Cd+2].[Cd+2]
assigned_category: inactive
--
compound: CCN(CC)N=O
assigned_category: active
--
compound: [K+]
assigned_category: active
--
compound: CCOc1ccc2c(c1)C(C)=CC(C)(C)N2
assigned_category: inactive
--
compound: CC1CCC(C(C)C)C(O)C1 (centres undefined)
assigned_category: inactive
--
compound: O=C(O)CCCC/C=C(\c1ccccc1)c1cccnc1
assigned_category: inactive
--
compound: C=CCNNCC=C
assigned_category: active
--
compound: NC(=O)Cc1c([O-])on[n+]1Cc1ccccc1
assigned_category: active

Query: Dear colleague, could you share the recorded outcome for CC(=O)Nc1nc(-c2ccc([N+](=O)[O-])o2)cs1 when you have a moment?
Reply: active

Query: Dear colleague, could you share the recorded outcome for CN(C)C(=O)Nc1ccc(Cl)c(Cl)c1 when you have a moment?
Reply: inactive

Query: Dear colleague, could you share the recorded outcome for O=C1c2ccccc2CN2C(=O)c3ccccc3CN12 when you have a moment?
Reply: active

Query: Dear colleague, could you share the recorded outcome for CC(=O)Nc1ccc2c(c1)Cc1cc(NC(C)=O)ccc1-2 when you have a moment?
Reply: inactive

Query: Dear colleague, could you share the recorded outcome for Cc1cccc(Nc2cc(Cl)nc(SCC(=O)O)n2)c1C when you have a moment?
Reply: active

Query: Dear colleague, could you share the recorded outcome for O=C1C(c2[nH]c3ccc(S(=O)(=O)O)cc3c2O)=Nc2ccc(S(=O)(=O)O)cc21 when you have a moment?
Reply: inactive

----------
experimental_protocol: DSSTox (CPDBAS) Carcinogenic Potency Database Summary MultiCellCall Results
measurement_parameters: animal carcinogenicity bioassays, multi-cell call summary
Calls of active or inactive are those of the source.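 Rule for the calls: active = tumour findings in long-term animal cancer tests in more than one sex, species or organ; inactive = no tumour finding and more than one negative test.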
Parameter call: string, one of active, inactive

Check out these entries, answers already filled in.
compound: C1CCNCC1
assigned_category: inactive
--
compound: O.[Cd+2].[Cl-].[Cl-]
assigned_category: inactive
--
compound: NCCS(=O)(=O)O
assigned_category: inactive
--
compound: COc1cc(/C=C/C(=O)O[C@H]2CC[C@]34C[C@]35CC[C@]3(C)[C@@H]([C@H](C)CCC=C(C)C)CC[C@@]3(C)[C@@H]5CC[C@H]4C2(C)C)ccc1O
assigned_category: inactive
--
compound: CC(=O)Nc1nnc(-c2ccc([N+](=O)[O-])o2)s1
assigned_category: active

Query: Dear colleague, could you share the recorded outcome for CC(=O)NNc1ccccc1 when you have a moment?
Reply: active

Query: Dear colleague, could you share the recorded outcome for O=[N+]([O-])c1cc(N(CCO)CCO)ccc1NCCO when you have a moment?
Reply: inactive

Query: Dear colleague, could you share the recorded outcome for Nc1cccc2c(N)cccc12 when you have a moment?
Reply: active
